assay: Aqueous solubility of the compound in 0.1 M boric acid buffer at pH 9.0 after 4 hrs by HPLC method; assay type: physicochemical
MEASURED_PARAMETER: solubility at 4 h (ng/mL)
Provide the reading as a plain figure in ng/mL.

Reference set, count: 3
MOLECULE: CC(=O)OC(C)OC(=O)C(C)(C)Oc1ccc(C(=O)c2ccc(Cl)cc2)cc1 (stereo unspecified)
UNIT_TEXT: ng/mL
TEST_RESULT: 3
--
MOLECULE: CC(C)OC(=O)OC(C)OC(=O)C(C)(C)Oc1ccc(C(=O)c2ccc(Cl)cc2)cc1 (stereo unspecified)
UNIT_TEXT: ng/mL
TEST_RESULT: 22
--
MOLECULE: CC(C)(C)C(=O)OCOC(=O)C(C)(C)Oc1ccc(C(=O)c2ccc(Cl)cc2)cc1
UNIT_TEXT: ng/mL
TEST_RESULT: 1

Lookup: Dear colleague, I am looking for the recorded solubility at 4 h of the following molecule: `CC(C)(Oc1ccc(C(=O)c2ccc(Cl)cc2)cc1)C(=O)OCCN1CCOCC1`
Found: 4800

Lookup: How about this molecule: `Cc1oc(=O)oc1COC(=O)C(C)(C)Oc1ccc(C(=O)c2ccc(Cl)cc2)cc1`
Found: 4

Lookup: Continue with `CC(C)OC(=O)OCOC(=O)C(C)(C)Oc1ccc(C(=O)c2ccc(Cl)cc2)cc1`
Found: 6

###

assay: Aqueous solubility of the compound in 0.1 M phosphate buffer at pH 5.2 after 4 hrs by HPLC method; type: physicochemical
MEASURED_PARAMETER: solubility at 4 h (ng/mL)
Quick reminder: number only, in ng/mL, skip the unit.

Example entries begin here.
COMPOUND: CC(C)(C)C(=O)OCOC(=O)C(C)(C)Oc1ccc(C(=O)c2ccc(Cl)cc2)cc1
TEST_RESULT: 1
--
COMPOUND: CC(=O)OC(C)OC(=O)C(C)(C)Oc1ccc(C(=O)c2ccc(Cl)cc2)cc1 (stereo unspecified)
TEST_RESULT: 3

Lookup: Would you kindly share the measured solubility at 4 h for `CC(C)(Oc1ccc(C(=O)c2ccc(Cl)cc2)cc1)C(=O)OCCN1CCOCC1` ?
Found: 38000

Lookup: // next record `CC(C)OC(=O)OCOC(=O)C(C)(C)Oc1ccc(C(=O)c2ccc(Cl)cc2)cc1`
Found: 2

Lookup: Now this one: CC(C)OC(=O)OC(C)OC(=O)C(C)(C)Oc1ccc(C(=O)c2ccc(Cl)cc2)cc1 (stereo unspecified)
Found: 1

Lookup: Same for `Cc1oc(=O)oc1COC(=O)C(C)(C)Oc1ccc(C(=O)c2ccc(Cl)cc2)cc1`
Found: 3

###

Consider the following compounds and their measured logD readings.
assay: Octanol-buffer partition coefficient, log P of the compound at pH 7.4 by HPLC; assay type: physicochemical
# respond with the number and nothing more

COMPOUND: CC(=O)OC(C)OC(=O)C(C)(C)Oc1ccc(C(=O)c2ccc(Cl)cc2)cc1 (configuration not stated)
logD: 4.65

COMPOUND: CC(C)OC(=O)OCOC(=O)C(C)(C)Oc1ccc(C(=O)c2ccc(Cl)cc2)cc1
logD: 4.91

COMPOUND: CC(C)OC(=O)C(C)(C)Oc1ccc(C(=O)c2ccc(Cl)cc2)cc1 [FENOFIBRATE]
logD: 4.78

COMPOUND: CC(C)(C)C(=O)OCOC(=O)C(C)(C)Oc1ccc(C(=O)c2ccc(Cl)cc2)cc1
logD: 4.7

Lookup: Param item = `CC(C)(Oc1ccc(C(=O)c2ccc(Cl)cc2)cc1)C(=O)OCCN1CCOCC1` ; retrieve measured logD.
Found: 3.5

Lookup: Then what about the compound CC(C)OC(=O)OC(C)OC(=O)C(C)(C)Oc1ccc(C(=O)c2ccc(Cl)cc2)cc1 (configuration not stated) ?
Found: 5.43

Lookup: Okay, and `Cc1oc(=O)oc1COC(=O)C(C)(C)Oc1ccc(C(=O)c2ccc(Cl)cc2)cc1` ?
Found: 4.35

###

test: Aqueous solubility of the compound in 0.2 M phosphate buffer at pH 7.4 after 4 hrs by HPLC method; assay type: physicochemical
MEASURED_PARAMETER: solubility at 4 h
Returns: string containing the numeric result and its unit.

Lookup: Quick check: solubility at 4 h of `CC(C)(C)C(=O)OCOC(=O)C(C)(C)Oc1ccc(C(=O)c2ccc(Cl)cc2)cc1` ?
Found: 2 ng/mL

Lookup: Also `CC(C)OC(=O)OCOC(=O)C(C)(C)Oc1ccc(C(=O)c2ccc(Cl)cc2)cc1` , if possible.
Found: 2 ng/mL

###

assay: Aqueous solubility of the compound in 0.2 M phosphate buffer at pH 7.4 after 4 hrs by HPLC method; format: physicochemical
MEASURED_PARAMETER: solubility at 4 h (ng/mL)
All answers are understood in ng/mL, so give the number only.

COMPOUND: CC(C)(Oc1ccc(C(=O)c2ccc(Cl)cc2)cc1)C(=O)OCCN1CCOCC1
solubility at 4 h / ng/mL: 1920

Lookup: Any idea what its solubility at 4 h is? The compound is `Cc1oc(=O)oc1COC(=O)C(C)(C)Oc1ccc(C(=O)c2ccc(Cl)cc2)cc1`
Found: 2

Lookup: Field entry: CC(=O)OC(C)OC(=O)C(C)(C)Oc1ccc(C(=O)c2ccc(Cl)cc2)cc1 (centres undefined)
Found: 2

Lookup: Then this compound: CC(C)OC(=O)OC(C)OC(=O)C(C)(C)Oc1ccc(C(=O)c2ccc(Cl)cc2)cc1 (centres undefined)
Found: 1
